assay: Highest frequency of moderate liver toxicity observed during clinical trials, expressed as a percentage. [column '% BIOL' in source]; conditions: human
QUANTITY_NAME: Hepatotoxicity (moderate) (%)
Please state the figure in %; there is no need to write the unit.

Examples with answers:
MOLECULE: CC(C)[N+](C)(CCC(C(N)=O)(c1ccccc1)c1ccccc1)C(C)C [ISOPROPAMIDE]
EXPERIMENTAL_VALUE: 0
--
MOLECULE: CC(=O)c1ccc2c(c1)N(CC(C)N(C)C)c1ccccc1S2 (stereo not drawn) [ACEPROMETAZINE]
EXPERIMENTAL_VALUE: 0

Next molecule, Hepatotoxicity (moderate) to be filled in.
# input Respond only with Hepatotoxicity (moderate) recorded for CS(=O)(=O)c1ccc(C2=C(c3ccccc3)C(=O)OC2)cc1 [ROFECOXIB]
# output 3.2

----------
conditions: human, serum
QUANTITY_NAME: Hepatotoxicity (acute)
Please give only the number in your answer, with no unit.

Examples with answers:
COMPOUND: NCC(=O)CCC(=O)O
EXPERIMENTAL_VALUE: 0
--
COMPOUND: CNC1(c2ccccc2Cl)CCCCC1=O (stereo not given)
EXPERIMENTAL_VALUE: 0
--
COMPOUND: Clc1cccc(Cl)c1N=C1NCCN1
EXPERIMENTAL_VALUE: 0

# input Respond only with Hepatotoxicity (acute) recorded for COc1cccc(C2(O)CCCCC2CN(C)C)c1 (stereo not given)
# output 0

# input Respond only with Hepatotoxicity (acute) recorded for CC(C)NCC(O)COc1ccc(CC(N)=O)cc1 (stereo not given)
# output 2

# input Respond only with Hepatotoxicity (acute) recorded for CO[C@@]1(NC(=O)CSCC#N)C(=O)N2C(C(=O)O)=C(CSc3nnnn3C)CS[C@@H]21
# output 0

# input Respond only with Hepatotoxicity (acute) recorded for CC(C(=O)O)c1ccc(N2CC=CC2)c(Cl)c1 (stereo not given)
# output 9

# input Respond only with Hepatotoxicity (acute) recorded for OCC(Br)(Br)Br
# output 9

# input Respond only with Hepatotoxicity (acute) recorded for c1cnc(N2CCN(Cc3ccc4c(c3)OCO4)CC2)nc1
# output 0

# input Respond only with Hepatotoxicity (acute) recorded for CN(C)CCC(c1ccc(Cl)cc1)c1ccccn1.O=C(O)/C=C\C(=O)O (stereo not given) [CHLORPHENIRAMINE MALEATE]
# output 2

----------
// values below are reported Hepatotoxicity (moderate)
assay: Highest frequency of moderate liver toxicity observed during clinical trials, expressed as a percentage. [column '% BIOL' in source]; conditions: human
Please state the figure in %; there is no need to write the unit.

Examples with answers:
COMPOUND: CCC[N+]12[C@H](O)[C@@H](CC)[C@@H]3C[C@H]1[C@@H]1N(C)c4ccccc4[C@]14C[C@H]2C3[C@H]4O (stereo not given in full)
QUANTITY_NAME: Hepatotoxicity (moderate)
EXPERIMENTAL_VALUE: 0
//
COMPOUND: CO[C@@H]1[C@@H](OC(N)=O)[C@@H](O)[C@H](Oc2ccc3c(O)c(NC(=O)c4ccc(O)c(CC=C(C)C)c4)c(=O)oc3c2C)OC1(C)C
QUANTITY_NAME: Hepatotoxicity (moderate)
EXPERIMENTAL_VALUE: 40
//
COMPOUND: CC(=O)[C@]1(O)Cc2c(O)c3c(c(O)c2[C@@H](O[C@H]2C[C@H](N)[C@H](O)[C@H](C)O2)C1)C(=O)c1ccccc1C3=O
QUANTITY_NAME: Hepatotoxicity (moderate)
EXPERIMENTAL_VALUE: 18.2
//
COMPOUND: COCCc1ccc(OCC(O)CNC(C)C)cc1 (stereo not given)
QUANTITY_NAME: Hepatotoxicity (moderate)
EXPERIMENTAL_VALUE: 32
//
COMPOUND: COc1cc2oc(=O)c(C)c(C)c2cc1OCCCN1CCN(c2ccccc2OC)CC1
QUANTITY_NAME: Hepatotoxicity (moderate)
EXPERIMENTAL_VALUE: 8.3
//
COMPOUND: O=C(O)CN1C(=O)c2cccc3cccc(c23)C1=O
QUANTITY_NAME: Hepatotoxicity (moderate)
EXPERIMENTAL_VALUE: 11.1
//
COMPOUND: O=C(NCCN1CCC(n2c(=O)[nH]c3cc(Cl)ccc32)CC1)c1ccc(F)cc1 [HALOPEMIDE]
QUANTITY_NAME: Hepatotoxicity (moderate)
EXPERIMENTAL_VALUE: 27
//
COMPOUND: C=C1c2cccc(O)c2C(=O)C2=C(O)[C@]3(O)C(=O)C(C(N)=O)=C(O)[C@@H](N(C)C)[C@@H]3[C@@H](O)[C@H]12
QUANTITY_NAME: Hepatotoxicity (moderate)
EXPERIMENTAL_VALUE: 0

# input Respond only with Hepatotoxicity (moderate) recorded for CC(C)NCC(O)COc1ccc(COCCOC(C)C)cc1 (stereo not given)
# output 7.1

# input Respond only with Hepatotoxicity (moderate) recorded for CCCCCCCCCCCCCCCCOP(=O)([O-])OCC[N+](C)(C)C
# output 55

# input Respond only with Hepatotoxicity (moderate) recorded for NN [HYDRAZINE]
# output 0

----------
// values below are reported Hepatotoxicity (time to onset)
assay: Times to onset, minimal and maximal, observed in the indexed observations. [column 'DELAI' in source]; conditions: human

COMPOUND: O=C(O)CCCc1ccc(N(CCCl)CCCl)cc1
EXPERIMENTAL_VALUE: 2 weeks - 25 months
--
COMPOUND: CSc1nc2cc(Cl)c(Oc3cccc(Cl)c3Cl)cc2[nH]1
EXPERIMENTAL_VALUE: 3 days
--
COMPOUND: COc1ccc(OC[C@H]2CN(C)CC[C@@H]2c2ccccc2)cc1
EXPERIMENTAL_VALUE: 5 months
--
COMPOUND: O=C(O)CCCCCCNC1c2ccccc2CCc2ccccc21
EXPERIMENTAL_VALUE: 1 day - 10 months
--
COMPOUND: c1cnc(N2CCN(Cc3ccc4c(c3)OCO4)CC2)nc1
EXPERIMENTAL_VALUE: 12 days - 2.5 months
--
COMPOUND: CC(C)(Oc1ccc(CCNC(=O)c2ccc(Cl)cc2)cc1)C(=O)O [BEZAFIBRATE]
EXPERIMENTAL_VALUE: 3 weeks - 3 months
--
COMPOUND: CC(=O)OCC1=C(C(=O)O)N2C(=O)[C@@H](NC(=O)CSc3ccncc3)[C@H]2SC1
EXPERIMENTAL_VALUE: 1 week
--
COMPOUND: CC(C)Cc1ccc(CC(=O)O)cc1
EXPERIMENTAL_VALUE: 4 months
--
COMPOUND: O=C1NC(=O)C(c2ccccc2)(c2ccccc2)N1
EXPERIMENTAL_VALUE: 1 day - 11 years
--
COMPOUND: N#C[C@H](O[C@@H]1O[C@H](CO[C@@H]2O[C@H](CO)[C@@H](O)[C@H](O)[C@H]2O)[C@@H](O)[C@H](O)[C@H]1O)c1ccccc1
EXPERIMENTAL_VALUE: 2 days

# input Respond only with Hepatotoxicity (time to onset) recorded for O=P(O)(O)C(Sc1ccc(Cl)cc1)P(=O)(O)O
# output 8 weeks

# input Respond only with Hepatotoxicity (time to onset) recorded for CN[C@@H]1[C@H](O)[C@H](NC)[C@H]2O[C@@]3(O)C(=O)C[C@@H](C)O[C@H]3O[C@@H]2[C@H]1O
# output 3 days

# input Respond only with Hepatotoxicity (time to onset) recorded for CCCN(CCC)S(=O)(=O)c1ccc(C(=O)O)cc1
# output 2 years

# input Respond only with Hepatotoxicity (time to onset) recorded for Cc1c(Cl)cccc1Nc1ccccc1C(=O)O
# output 6 months

# input Respond only with Hepatotoxicity (time to onset) recorded for CNC(=C[N+](=O)[O-])NCCSCc1ccc(CN(C)C)o1
# output 4 days - 3 months

# input Respond only with Hepatotoxicity (time to onset) recorded for CC[C@]1(O)C[C@H]2CN(CCc3c([nH]c4ccccc34)[C@@](C(=O)OC)(c3cc4c(cc3OC)N(C=O)[C@H]3[C@@](O)(C(=O)OC)[C@H](OC(C)=O)[C@]5(CC)C=CCN6CC[C@]43[C@@H]65)C2)C1
# output 3 days - 20 days

# input Respond only with Hepatotoxicity (time to onset) recorded for CCc1nn(CCCN2CCN(c3cccc(Cl)c3)CC2)c(=O)n1CCOc1ccccc1
# output 1 week - 2 years

# input Respond only with Hepatotoxicity (time to onset) recorded for C[C@]12Cc3c[nH]nc3C[C@@H]1CC[C@@H]1[C@@H]2CC[C@@]2(C)[C@H]1CC[C@]2(C)O
# output 1 month - 20 years

----------
conditions: human
QUANTITY_NAME: Hepatotoxicity (steatosis)
Please give only the number in your answer, with no unit.

Examples with answers:
MOLECULE: COc1ccc2[nH]cc(CCNC(C)=O)c2c1 [MELATONIN]
Hepatotoxicity (steatosis): 0

MOLECULE: COCCCOc1ccnc(C[S+]([O-])c2nc3ccccc3[nH]2)c1C (centres undefined) [RABEPRAZOLE]
Hepatotoxicity (steatosis): 0

MOLECULE: Nc1nc(O)c2ncn(COC(CO)CO)c2n1 [GANCICLOVIR]
Hepatotoxicity (steatosis): 0

MOLECULE: O=C1OCCN1/N=C/c1ccc([N+](=O)[O-])o1 [FURAZOLIDONE]
Hepatotoxicity (steatosis): 0

MOLECULE: CC1=C(/C=C/C(C)=C/C=C/C(C)=C/CO)C(C)(C)CCC1 [RETINOL]
Hepatotoxicity (steatosis): 22

MOLECULE: OC(c1cc(C(F)(F)F)nc2c(C(F)(F)F)cccc12)C1CCCCN1 (centres undefined) [MEFLOQUINE]
Hepatotoxicity (steatosis): 1

MOLECULE: C[C@]12CC[C@H]3[C@@H](CCC4=CC(=O)CC[C@@H]43)[C@@H]1CC[C@@H]2O [NANDROLONE]
Hepatotoxicity (steatosis): 1

MOLECULE: CC(C)[C@H](N)C(=O)OCC(CO)OCn1cnc2c(=O)nc(N)[nH]c21 (some centres undefined) [VALGANCICLOVIR]
Hepatotoxicity (steatosis): 0

Next molecule, Hepatotoxicity (steatosis) to be filled in.
# input Respond only with Hepatotoxicity (steatosis) recorded for CC1Cc2ccccc2N1NC(=O)c1ccc(Cl)c(S(N)(=O)=O)c1 (centres undefined) [INDAPAMIDE]
# output 0
